Assay: Cytotoxicity against human HeLa cells assessed as maximum non-toxic drug level after 2 days by neutral red uptake assay
Assay type: cell-based
Details: read-out: MNCC
recorded_endpoint: MNTC at 48 h (µg/mL)
Unit µg/mL implied. Number only.

Form field MNTC at 48 h, entry `C[C@H]1[C@H](C)CC[C@]2(C(=O)O[C@@H]3O[C@H](CO)[C@@H](O)[C@H](O)[C@H]3O)CC[C@]3(C(=O)O)C(=CC[C@@H]4[C@@]5(C)CC[C@H](O[C@@H]6O[C@H](CO)[C@@H](O)[C@H](O)[C@H]6O)C(C)(C)[C@@H]5CC[C@]43C)[C@H]12` : 100
